Data origin, for the record: ChEMBL document CHEMBL1123761

Biological target: UniProt P22412
Sequence (P22412 whole entry): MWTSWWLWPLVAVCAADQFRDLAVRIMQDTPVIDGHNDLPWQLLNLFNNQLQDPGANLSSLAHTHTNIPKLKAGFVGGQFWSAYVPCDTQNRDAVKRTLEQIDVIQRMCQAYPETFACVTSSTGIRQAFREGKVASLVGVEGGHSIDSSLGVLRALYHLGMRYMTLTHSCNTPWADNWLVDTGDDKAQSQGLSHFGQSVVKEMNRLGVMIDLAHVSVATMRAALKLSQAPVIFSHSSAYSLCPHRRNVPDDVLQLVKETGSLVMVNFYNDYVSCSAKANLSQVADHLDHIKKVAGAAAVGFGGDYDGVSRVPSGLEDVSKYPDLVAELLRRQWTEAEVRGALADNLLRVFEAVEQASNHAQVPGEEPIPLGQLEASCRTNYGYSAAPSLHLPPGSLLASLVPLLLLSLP
Test: Inhibitory activity against beta-lactamase renal dipeptidase
pKi: −log10 of the molar value.
endpoint_label: pKi

molecule	measured_target	pKi
CC1(C)CC1C(=O)N/C(=C\CCCCCO)C(=O)O (stereo unspecified)	UniProt P22412	6.64
CC1(C)CC1C(=O)N/C(=C\CCCSCP(=O)(O)O)C(=O)O (stereo unspecified)	UniProt P22412	6.66
CC1(C)CC1C(=O)N/C(=C\CCC(=O)O)C(=O)O (stereo unspecified)	UniProt P22412	6.85
C/C=C(\NC(=O)CCCC(=O)OCC)C(=O)O	UniProt P22412	4.41

(1) C/C=C(\NC(=O)CCCNC(C)=O)C(=O)O
(2) C/C=C(\NC(=O)C1CC1(Cl)Cl)C(=O)O (stereo unspecified)
Q) Higher pKi between 1 and 2 ? Write the label of whichever entry you select.
A) 2
(2: 7.10, 1: 3.99)

* * *

Target: Dipeptidase 1 (Sus scrofa)
Sequence (P22412 whole entry): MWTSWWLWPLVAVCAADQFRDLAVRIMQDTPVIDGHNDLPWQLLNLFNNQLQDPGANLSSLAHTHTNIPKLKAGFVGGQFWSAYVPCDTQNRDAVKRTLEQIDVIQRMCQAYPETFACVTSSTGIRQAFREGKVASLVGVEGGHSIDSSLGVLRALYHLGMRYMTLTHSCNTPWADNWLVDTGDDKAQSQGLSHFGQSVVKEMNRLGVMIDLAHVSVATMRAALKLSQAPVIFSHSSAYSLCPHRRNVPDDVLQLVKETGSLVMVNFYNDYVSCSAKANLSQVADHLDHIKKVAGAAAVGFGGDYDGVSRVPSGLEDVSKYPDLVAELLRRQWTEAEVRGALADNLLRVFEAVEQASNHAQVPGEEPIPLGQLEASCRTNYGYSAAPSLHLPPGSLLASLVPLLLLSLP
Experiment: Inhibitory activity against beta-lactamase renal dipeptidase
pKi: −log10 of the molar value.
endpoint_label: pKi

Examples with answers:
molecule	pKi
CC1(C)CC1C(=O)N/C(=C\C1CC1)C(=O)O (configuration not stated)	6.36
CCC/C=C(\NC(=O)C1CC1(Br)Br)C(=O)O (configuration not stated)	7.82
CC1(C)CC1C(=O)N/C(=C\CCCCCN)C(=O)O (configuration not stated)	6.00
CC1(C)CC1C(=O)N/C(=C\CCCCCS)C(=O)O (configuration not stated)	6.77
C#CCNCCCCC/C=C(\NC(=O)C1CC1(C)C)C(=O)O (configuration not stated)	6.13

(P) C/C=C(\NC(=O)C1CCCCCC1)C(=O)O
(Q) C/C=C(\NC(=O)C1CC1(Br)Br)C(=O)O (configuration not stated)
Q) # compare pKi for P vs Q ; return the one with the smaller value Write the label of whichever entry you select.
A) P

(a) C/C=C(\NC(=O)CCCCCCCC)C(=O)O
(b) CC1(C)C[C@@H]1C(=O)N/C(=C\CCCCSC[C@H](N)C(=O)O)C(=O)O (stereo in doubt; 176) [CILASTATIN]
(c) CC(C)CC(=O)N/C(=C\CCC(=O)O)C(=O)O
(d) CCCCC/C=C(\NC(=O)[C@@H]1CC1(C)C)C(=O)O
Q) // smallest pKi at index 0, largest at the end Please list each label once, in the requested order.
A) a, d, c, b
